- Target system: T1, 4H687-bH
- T1 chain: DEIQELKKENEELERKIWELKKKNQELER
- Assay protocol: two-hybrid library CCNG1;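 further: natural log of median RNA to DNA barcode read ratio; higher means stronger binding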
Measurement type: interaction score

Binder	interaction score
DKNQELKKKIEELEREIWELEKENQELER [4H3843-bH]	-0.585

(I) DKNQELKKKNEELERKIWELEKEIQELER [4H4001-bH]
(II) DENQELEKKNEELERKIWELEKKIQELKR [4H1446-bH]
(III) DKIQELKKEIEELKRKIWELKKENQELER [4H2667-bH]
Please list these binders in decreasing order of interaction score. Reply: labels, ordered per the request. II, III, I
(II: 0.347, III: -0.168, I: -0.869)
